- Test system: NCI-H2405 (Lung Adenocarcinoma);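 further: after 72 h of two-drug dosing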
- ASSAY_SUMMARY: Bliss excess, mean over the matrix (fraction); higher = more synergy
QUANTITY_MEASURED: Bliss excess

MOLECULE	TEST_VALUE
COc1cccc(OCCCN)c1-c1cc(Nc2cnc(C#N)cn2)n[nH]1 [Prexasertib] + C[C@@H]1COCCN1C2=NC(=NC(=C2)C3(CC3)[S@](=N)(=O)C)C4=C5C=CNC5=NC=C4 [AZD6738] (first compound max 1 µM, 7x7, partner max 10 µM)	0.0046
CC1(C)CCC(CN2CCN(c3ccc(C(=O)NS(=O)(=O)c4ccc(NCC5CCOCC5)c([N+](=O)[O-])c4)c(Oc4cnc5[nH]ccc5c4)c3)CC2)=C(c2ccc(Cl)cc2)C1 [Venetoclax] + C=CCn1c(=O)c2cnc(Nc3ccc(N4CCN(C)CC4)cc3)nc2n1-c1cccc(C(C)(C)O)n1 [AZD1775] (first compound max 1 µM, partner max 1 µM)	-0.0756
Cc1nc(Nc2ncc(C(=O)Nc3c(C)cccc3Cl)s2)cc(N2CCN(CCO)CC2)n1 [Dasatinib] + CC(=O)Nc1cccc(-n2c(=O)n(C3CC3)c(=O)c3c(Nc4ccc(I)cc4F)n(C)c(=O)c(C)c32)c1 [Trametinib] (first compound max 2 µM, 7x7, partner max 1 µM)	0.0721

All values here come from the supplement of paper PMC11061612.
